tested on: Escherichia coli TOP10; test: shrunken log2 fold change of peptide-encoding DNA abundance (4.5 h post-induction vs induction); higher = less antimicrobial activity (less host growth inhibition); conditions: time post-induction: 4.5 h; library: site-saturation at positions 5, 18, 19, 20
List of shrunken log2 fold change values.
MEASURED PROPERTY: shrunken log2 fold change

>>> observed_result("RRIRGRPPRLPRPRPRPAVLPRP")
0.394
>>> observed_result("RRIRHRPPRLPRPRPRPLKKPRP")
-0.157
>>> observed_result("RRIRARPPRLPRPRPRPHFRPRP")
0.166
>>> observed_result("RRIRDRPPRLPRPRPRPMYSPRP")
0.0101
>>> observed_result("RRIRERPPRLPRPRPRPNQAPRP")
-0.0316
>>> observed_result("RRIRHRPPRLPRPRPRPAVWPRP")
0.261
>>> observed_result("RRIRIRPPRLPRPRPRPKSNPRP")
-0.673
>>> observed_result("RRIRERPPRLPRPRPRPHKTPRP")
0.0137
>>> observed_result("RRIRFRPPRLPRPRPRPDEKPRP")
-0.0935
>>> observed_result("RRIRYRPPRLPRPRPRPKWEPRP")
-0.263
>>> observed_result("RRIRKRPPRLPRPRPRPILFPRP")
-0.0861
>>> observed_result("RRIRLRPPRLPRPRPRPWVGPRP")
0.233
>>> observed_result("RRIRARPPRLPRPRPRPHGPPRP")
0.321
>>> observed_result("RRIRTRPPRLPRPRPRPNTHPRP")
-0.451
>>> observed_result("RRIRFRPPRLPRPRPRPEDGPRP")
0.333

====

test system: Escherichia coli TOP10; assay: shrunken log2 fold change of peptide-encoding DNA abundance (4.5 h post-induction vs induction); higher = less antimicrobial activity (less host growth inhibition); conditions: time post-induction: 4.5 h; library: site-saturation at positions 5, 18, 19, 20
MEASURED PROPERTY: shrunken log2 fold change

>>> observed_result("RRIRRRPPRLPRPRPRPGVVPRP")
0.281
>>> observed_result("RRIRSRPPRLPRPRPRPICCPRP")
-0.0929
>>> observed_result("RRIRHRPPRLPRPRPRPAQGPRP")
-0.197
>>> observed_result("RRIRQRPPRLPRPRPRPKLPPRP")
0.146
>>> observed_result("RRIRPRPPRLPRPRPRPFDIPRP")
-0.395
>>> observed_result("RRIRWRPPRLPRPRPRPCNAPRP")
-0.0905
>>> observed_result("RRIRKRPPRLPRPRPRPMRKPRP")
1.44
>>> observed_result("RRIRDRPPRLPRPRPRPQGWPRP")
0.693
>>> observed_result("RRIRCRPPRLPRPRPRPGRNPRP")
-0.0027
>>> observed_result("RRIRCRPPRLPRPRPRPEKVPRP")
0.0187
>>> observed_result("RRIRYRPPRLPRPRPRPMEAPRP")
-0.163
>>> observed_result("RRIRLRPPRLPRPRPRPMMWPRP")
0.148
>>> observed_result("RRIRHRPPRLPRPRPRPWNLPRP")
-0.278
>>> observed_result("RRIRNRPPRLPRPRPRPWMLPRP")
-0.0937
>>> observed_result("RRIRTRPPRLPRPRPRPHLNPRP")
-0.358

====

system: Escherichia coli TOP10; experiment: shrunken log2 fold change of peptide-encoding DNA abundance (4.5 h post-induction vs induction); higher = less antimicrobial activity (less host growth inhibition); details: time post-induction: 4.5 h; library: site-saturation at positions 5, 18, 19, 20
Binary call on shrunken log2 fold change: Criterion met from 0.04 upward, Criterion not met beneath that.

>>> label("RRIRDRPPRLPRPRPRPWGTPRP")
"Criterion met"
>>> label("RRIRPRPPRLPRPRPRPKHSPRP")
"Criterion not met"
>>> label("RRIRWRPPRLPRPRPRPNFCPRP")
"Criterion met"
>>> label("RRIRCRPPRLPRPRPRPIVLPRP")
"Criterion not met"
>>> label("RRIRSRPPRLPRPRPRPAIQPRP")
"Criterion not met"
>>> label("RRIRVRPPRLPRPRPRPLMPPRP")
"Criterion not met"
>>> label("RRIRCRPPRLPRPRPRPWMIPRP")
"Criterion not met"
>>> label("RRIRYRPPRLPRPRPRPPGLPRP")
"Criterion met"
>>> label("RRIRARPPRLPRPRPRPICVPRP")
"Criterion met"
>>> label("RRIRMRPPRLPRPRPRPFYMPRP")
"Criterion not met"
>>> label("RRIRIRPPRLPRPRPRPWVNPRP")
"Criterion not met"
>>> label("RRIRDRPPRLPRPRPRPKCIPRP")
"Criterion not met"
>>> label("RRIRTRPPRLPRPRPRPRIAPRP")
"Criterion met"
>>> label("RRIRHRPPRLPRPRPRPPHEPRP")
"Criterion met"
>>> label("RRIRNRPPRLPRPRPRPLVHPRP")
"Criterion met"

====

tested on: Escherichia coli TOP10; experiment: shrunken log2 fold change of peptide-encoding DNA abundance (4.5 h post-induction vs induction); higher = less antimicrobial activity (less host growth inhibition); details: time post-induction: 4.5 h; library: site-saturation at positions 5, 18, 19, 20
Recorded shrunken log2 fold change split into classes L: < -0.2; M: ≥ -0.2 and < 0.004; H: ≥ 0.004

>>> label("RRIRNRPPRLPRPRPRPMTGPRP")
"M"
>>> label("RRIRRRPPRLPRPRPRPYFEPRP")
"L"
>>> label("RRIRPRPPRLPRPRPRPWFYPRP")
"L"
>>> label("RRIRFRPPRLPRPRPRPSMNPRP")
"H"
>>> label("RRIRYRPPRLPRPRPRPRQIPRP")
"M"
>>> label("RRIRGRPPRLPRPRPRPTASPRP")
"H"
>>> label("RRIRIRPPRLPRPRPRPTVYPRP")
"M"
>>> label("RRIRIRPPRLPRPRPRPVTGPRP")
"L"
>>> label("RRIRIRPPRLPRPRPRPTNWPRP")
"M"
>>> label("RRIRFRPPRLPRPRPRPLSGPRP")
"L"
>>> label("RRIRGRPPRLPRPRPRPMFIPRP")
"H"
>>> label("RRIRTRPPRLPRPRPRPLSMPRP")
"L"
>>> label("RRIRFRPPRLPRPRPRPNLGPRP")
"M"
>>> label("RRIRWRPPRLPRPRPRPAKLPRP")
"H"

====

test system: Escherichia coli TOP10; assay: shrunken log2 fold change of peptide-encoding DNA abundance (4.5 h post-induction vs induction); higher = less antimicrobial activity (less host growth inhibition); settings: time post-induction: 4.5 h; library: site-saturation at positions 5, 18, 19, 20
MEASURED PROPERTY: shrunken log2 fold change

>>> observed_result("RRIRDRPPRLPRPRPRPVWYPRP")
-0.134
>>> observed_result("RRIRARPPRLPRPRPRPQPDPRP")
0.254
>>> observed_result("RRIRDRPPRLPRPRPRPSNQPRP")
-0.315
>>> observed_result("RRIRWRPPRLPRPRPRPESSPRP")
0.759
>>> observed_result("RRIRQRPPRLPRPRPRPIALPRP")
-0.213
>>> observed_result("RRIRDRPPRLPRPRPRPEIAPRP")
1.31
>>> observed_result("RRIRCRPPRLPRPRPRPHATPRP")
0.204
>>> observed_result("RRIRPRPPRLPRPRPRPNDCPRP")
0.0214

====

test system: Escherichia coli TOP10; experiment: shrunken log2 fold change of peptide-encoding DNA abundance (4.5 h post-induction vs induction); higher = less antimicrobial activity (less host growth inhibition); conditions: time post-induction: 4.5 h; library: site-saturation at positions 5, 18, 19, 20;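 note: peptides expressed intracellularly from a pBAD plasmid library in pooled LB shake-flask culture, induced with 0.3% L-arabinose, DNA abundance read by NGS, three biological replicates, DESeq2 with apeglm shrinkage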
MEASURED PROPERTY: shrunken log2 fold change

>>> observed_result("RRIRARPPRLPRPRPRPMGWPRP")
0.468
>>> observed_result("RRIRCRPPRLPRPRPRPGAMPRP")
0.319
>>> observed_result("RRIRDRPPRLPRPRPRPFWMPRP")
0.0871
>>> observed_result("RRIRMRPPRLPRPRPRPLSPPRP")
0.345
>>> observed_result("RRIRFRPPRLPRPRPRPRSHPRP")
-0.181
>>> observed_result("RRIRWRPPRLPRPRPRPTHMPRP")
0.206
>>> observed_result("RRIRGRPPRLPRPRPRPNMEPRP")
0.22
>>> observed_result("RRIRRRPPRLPRPRPRPTIAPRP")
0.0702
>>> observed_result("RRIRDRPPRLPRPRPRPKVCPRP")
-0.0149
>>> observed_result("RRIRWRPPRLPRPRPRPGGNPRP")
0.0972
>>> observed_result("RRIRFRPPRLPRPRPRPCMTPRP")
0.162
>>> observed_result("RRIRERPPRLPRPRPRPARGPRP")
0.644
>>> observed_result("RRIRERPPRLPRPRPRPCRVPRP")
-0.25
>>> observed_result("RRIRCRPPRLPRPRPRPFLYPRP")
-0.513
>>> observed_result("RRIRSRPPRLPRPRPRPLAAPRP")
0.562

// provenance: the supplement of paper PMC9112550
